Test: Elacridar plasma and brain exposure, constant infusion in rats
Type: in vivo, Sprague Dawley rats
Conditions: Sprague Dawley, rat, plasma, intravenous, total plasma exposure (mean), range over doses, 0.009 to 8.9 mg/hr/kg constant infusion over 4.5 hours
observed.property: concentration at 4 h

INSERT INTO results (cpd_smiles, observed_property, value_measured) VALUES
  ('COc1cc2c(cc1OC)CN(CCc1ccc(NC(=O)c3cccc4c(=O)c5cccc(OC)c5[nH]c34)cc1)CC2', 'concentration at 4 h', '0.0016 to 3.27 µg/mL');

====

Assay: Elacridar plasma and brain exposure, constant infusion in rats
Format: in vivo, Sprague Dawley rats
Details: Sprague Dawley, rat, plasma, intravenous, 8.9 mg/hr/kg, Elacridar (total plasma), elacridar 8.9 mg/hr/kg, 4.5-hour constant infusion, mean
observed.property: concentration at 4 h

INSERT INTO measurements (molecule, value_measured) VALUES
  ('COc1cc2c(cc1OC)CN(CCc1ccc(NC(=O)c3cccc4c(=O)c5cccc(OC)c5[nH]c34)cc1)CC2 [elacridar]', '> 2000 ng/mL');
